Recorded values, source PubChem BioAssay (NCATS).

# study.conditions: Ebola virus entry cell assay, ratio channel
The source made the active and inactive calls. The call rests on the fitted dose curve.
Pick one: label 1 for active, label 0 for inactive

c1cnc2cc3c(cc2n1)C1CNCC3C1 :: label 0
Cc1cccc(C)c1OCC(C)N (centres undefined) :: label 0
Cc1onc(-c2ccccc2Cl)c1C(=O)N[C@@H]1C(=O)N2[C@@H]1SC(C)(C)[C@@H]2C(=O)O :: label 0
Nc1cccc2c1CN(C1CCC(=O)NC1=O)C2=O (centres undefined) :: label 0
COc1cc(NC(C)CCCN)c2ncccc2c1 (centres undefined) :: label 0
NC(=O)c1cn(Cc2c(F)cccc2F)nn1 :: label 0

Q: Can you look up the reported call for `Nc1ncn([C@@H]2O[C@H](CO)[C@@H](O)[C@H]2O)c(=O)n1` for me?
A: label 0

Q: Next molecule up: Cc1ccccc1C(=O)Nc1ccc(C(=O)N2CCCC(O)c3cc(Cl)ccc32)c(C)c1 (centres undefined)
A: label 0

Q: Also `CCCN(CCc1cccs1)[C@H]1CCc2c(O)cccc2C1` , if possible.
A: label 1

Q: Would you kindly repeat that for `COc1c(C)c2c(c(O)c1C/C=C(\C)CCC(=O)OCCN1CCOCC1)C(=O)OC2` ?
A: label 1

Q: What do you have for O=C1CCC(N2C(=O)c3ccccc3C2=O)C(=O)N1 (centres undefined) ?
A: label 0
